Can you tell me kon for the items I'm about to list?
# SYSTEM_UNDER_TEST: Recombinant human his-tagged IGF 1R extracellular domain protein (human) (UniProt P08069)
# TEST_SUMMARY: SPR, captured antibody, pH 7.4
Give the number; M⁻¹ s⁻¹ is assumed, so skip it.

## Input kon lookup needed for VRDN-03125 (antibody, V domains shown) VH: EVQLVESGGGVVQPGRSLRLSCAASGFTFDDYAMHWVRQAPGKGLEWVAVIWYDGSSKYYADSVKGRFTISRDNSKNTLYLQMNSLRAEDTAVYYCARELGRRYFDIWGQGTLVTVSS VL: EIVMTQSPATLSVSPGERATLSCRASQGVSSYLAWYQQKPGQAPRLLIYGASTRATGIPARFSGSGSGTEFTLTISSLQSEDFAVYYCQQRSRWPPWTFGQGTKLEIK , thanks.
## Output 339000

## Input Again, but for VRDN-03104 (antibody, V domains shown) VH: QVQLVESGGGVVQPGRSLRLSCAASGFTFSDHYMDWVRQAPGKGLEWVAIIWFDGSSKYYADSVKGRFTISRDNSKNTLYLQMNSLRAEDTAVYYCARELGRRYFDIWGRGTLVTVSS VL: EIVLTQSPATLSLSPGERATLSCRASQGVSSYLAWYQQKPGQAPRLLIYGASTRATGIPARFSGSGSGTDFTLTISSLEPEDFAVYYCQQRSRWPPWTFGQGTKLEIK
## Output 85000

## Input And VRDN-03109 (antibody, V domains shown) VH: QVQLVESGGGVVQPGRSLRLSCAASGFTFSSYSMHWVRQAPGKGLEWVAIIWFDGSSKYYPGSVKGRFTISRDNSKNTLYLQMNSLRAEDTAVYYCARELGRRYFDIWGRGTLVTVSS VL: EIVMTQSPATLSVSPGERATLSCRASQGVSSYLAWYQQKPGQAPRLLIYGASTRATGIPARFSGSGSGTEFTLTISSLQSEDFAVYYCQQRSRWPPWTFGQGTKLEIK ?
## Output 42500

## Input Entry to check: VRDN-03091 (antibody, V domains shown) VH: QVQLVESGGGVVQPGRSLRLSCAASGFTFSSYGMHWVRQAPGKGLEWVAIIWFDGSSTYYADSVRGRFTISRDNSKNTLYLQMNSLRAEDTAVYYCARELGRRYFDLWGRGTLVTVSS VL: EIVLTQSPATLSLSPGERATLSCGASQSVSSSYLAWYQQKPGQAPRLLIYDASKRATGIPARFSGSGSGTDFTLTISSLEPEDFAVYYCQQRSKWPPWTFGQGTKVEIK
## Output 819000

## Input Then what about the binder VRDN-03054 (antibody, V domains shown) VH: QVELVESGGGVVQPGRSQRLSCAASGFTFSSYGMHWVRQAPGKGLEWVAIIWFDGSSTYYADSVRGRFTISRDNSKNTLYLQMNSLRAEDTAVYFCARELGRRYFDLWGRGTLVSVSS VL: EIVLTQSPATLSLSPGERATLSCRASQSVSSYLAWYQQKPGQAPRLLIYDASKRHTGIPARFSGSGSGTDFTLTISSLEPEDFAVYYCQQRSKWPPWTFGQGTKVESK ?
## Output 93500

## Input Request: VRDN-03051 (antibody, V domains shown) VH: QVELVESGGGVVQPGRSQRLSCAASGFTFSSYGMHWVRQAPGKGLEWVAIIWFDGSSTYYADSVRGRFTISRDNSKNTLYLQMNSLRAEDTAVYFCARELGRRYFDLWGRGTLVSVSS VL: EIVLTQSPATLSLSPGERATLSCRASQSVSSYLAWYQQKPGQAPRLLIYDAHKRATGIPARFSGSGSGTDFTLTISSLEPEDFAVYYCQQRSKWPPWTFGQGTKVESK
## Output 110000

## Input Next binder: VRDN-03116 (antibody, V domains shown) VH: EVQLVESGGGVVQPGRSLRLSCAASGFTFSDYTMHWVRQAPGKGLEWVAIIWFDGSSKYYPGSVKGRFTISRDNSKNTLYLQMNSLRAEDTAVYYCARELGRRYFDIWGRGTLVTVSS VL: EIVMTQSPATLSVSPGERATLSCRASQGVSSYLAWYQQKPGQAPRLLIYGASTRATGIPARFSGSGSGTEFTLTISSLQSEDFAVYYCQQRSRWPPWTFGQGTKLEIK
## Output 212000

## Input // next record VRDN-03138 (antibody, V domains shown) VH: EVQLVESGGGVVQPGRSLRLSCAASGFTFDDYTMHWVRQAPGKGLEWVAVIWYDGSSKYYADSVKGRFTISRDNSKNTLYLQMNSLRAEDTAVYYCARELGRRYFDIWGQGTLVTVSS VL: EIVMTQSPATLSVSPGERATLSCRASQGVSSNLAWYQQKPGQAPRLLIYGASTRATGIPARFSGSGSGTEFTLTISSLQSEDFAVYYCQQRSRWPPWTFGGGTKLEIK
## Output 495000

## Input Cool, now VRDN-03129 (antibody, V domains shown) VH: EVQLVESGGGVVQPGRSLRLSCAASGFTFSSYSMHWVRQAPGKGLEWVAIIWFDGSNKYYADSVKSRFTISRDNSKNTLYLQMNSLRAEDTAVYYCARELGRRYFDIWGQGTLVTVSS VL: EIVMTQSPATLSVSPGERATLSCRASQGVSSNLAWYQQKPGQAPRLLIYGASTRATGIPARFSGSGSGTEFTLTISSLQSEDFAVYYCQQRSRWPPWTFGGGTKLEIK
## Output 646000

## Input // query: VRDN-03122 (antibody, V domains shown) VH: EVQLVESGGGVVQPGRSLRLSCAASGFTFSSYSMHWVRQAPGKGLEWVAVIWYDGSSKYYADSVKSRFTISRDNSKNTLYLQMNSLRAEDTAVYYCARELGRRYFDIWGQGTLVTVSS VL: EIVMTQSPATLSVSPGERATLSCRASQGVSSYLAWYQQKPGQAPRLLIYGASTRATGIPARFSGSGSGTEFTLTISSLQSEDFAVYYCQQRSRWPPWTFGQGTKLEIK
## Output 111000

Origin of values: patent US20240352133A1
